molecular target: cytochrome P450 2B4 (Oryctolagus cuniculus, UniProt P00178, H226Y); experiment: UV-visible competition with benzphetamine; format: binding
Sequence (P00178 28-491 H226Y): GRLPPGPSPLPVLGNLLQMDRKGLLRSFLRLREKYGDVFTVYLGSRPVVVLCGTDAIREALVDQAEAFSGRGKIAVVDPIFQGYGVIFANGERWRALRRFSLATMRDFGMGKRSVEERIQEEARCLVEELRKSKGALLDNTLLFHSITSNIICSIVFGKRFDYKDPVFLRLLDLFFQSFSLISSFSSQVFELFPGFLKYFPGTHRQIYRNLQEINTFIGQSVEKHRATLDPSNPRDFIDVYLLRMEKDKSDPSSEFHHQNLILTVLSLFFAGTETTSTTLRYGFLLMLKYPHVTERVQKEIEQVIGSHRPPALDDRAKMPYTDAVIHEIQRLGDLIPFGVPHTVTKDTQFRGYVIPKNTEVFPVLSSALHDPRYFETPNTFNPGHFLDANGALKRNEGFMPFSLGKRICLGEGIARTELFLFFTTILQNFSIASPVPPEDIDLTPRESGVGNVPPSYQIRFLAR
measured.attribute: Kd (µM)
Please respond with the number in µM and leave the unit unwritten.

Request the reported Kd associated with Cc1c(N(C)C)c(=O)n(-c2ccccc2)n1C
2000

Every entry's value here was drawn from paper PMC3163098.
